Entry source: patent US20160272691A1

# TARGET DESC: Bcl-2, P10415
# Sequence (P10415 1-211 limits assumed): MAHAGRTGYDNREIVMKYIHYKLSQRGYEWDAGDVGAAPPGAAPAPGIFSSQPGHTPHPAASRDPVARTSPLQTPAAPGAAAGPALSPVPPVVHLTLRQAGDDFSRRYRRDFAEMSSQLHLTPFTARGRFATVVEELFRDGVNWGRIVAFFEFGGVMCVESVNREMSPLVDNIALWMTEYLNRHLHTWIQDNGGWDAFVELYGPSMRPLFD
# ASSAY: not stated in the sentence (ITC implied)
REPORTED ENDPOINT: Kd (µM)
Express the result in µM but write the number alone.

Give its Kd value. Item: GSGTMENLSRRLKVTGDLFDIMSGQT (modifications not checked) [Beclin 1 BH3D peptide, wild type]
9
